Below, each of the compounds is paired with its reported growth value.
System: A549/ATCC NSCLC
MEASUREMENT DESCRIPTION: NCI-60 one-dose screen, 48 h (100 = growth as untreated, 0 = no growth, -100 = all killed)
SETUP CONDITIONS: 10 µM
Compounds without any hit were thinned out: in the full panel of roughly 83,000, 20% have a hit.
# unit: % | format: bare number

N#C/C(=C\c1ccc(N(c2ccccc2)c2ccccc2)cc1)C(N)=O: 36.3
C#CCNC(=O)[C@]12CCC(C)(C)C[C@H]1C1=CC[C@@H]3[C@@](C)(CCC#N)[C@H](C(=C)C)CC[C@@]3(C)[C@]1(C)CC2: 40.1
CN1CCN(c2ccc(Nc3nc(NCCCNC(=O)c4ccc(F)cc4)c4sccc4n3)cc2)CC1: 56.3
CN1CCO/C1=C(/NC(=O)c1ccc(Cl)cc1)[P+](c1ccccc1)(c1ccccc1)c1ccccc1: 102
Oc1ccc(/C=C2\CCCc3cc4ccc(O)cc4[o+]c32)c(O)c1: 83

Q: Given the compound `CC(=O)Nc1ccc(-c2cn(-c3cccc(C(=O)Nc4cc(C(F)(F)F)cc(C(F)(F)F)c4)c3)nn2)cn1` , what is its reported growth?
A: -26.1

Q: Same question, `Cc1ccc(C(=O)NCCCNc2nc(Nc3ccc(N4CCN(C)CC4)cc3)nc3ccsc23)cc1` this time
A: 54.5

* * *

System: MDA-MB-468 breast
MEASUREMENT DESCRIPTION: NCI-60 one-dose screen, 48 h
SETUP CONDITIONS: 10 µM
The panel holds about 83,000 compounds, 20% with a hit somewhere; the sample as a whole holds those more often. Active and inactive are the calls of the source. How the source made its calls: active means growth percent below 10; inactive means the rest.
In this exercise, the only acceptable responses are True (active), False (inactive)

Some solved entries appear below for comparison.
Cc1noc2c(Cc3ccccc3)nn(CC(=O)N/N=C/c3ccc(F)cc3)c(=O)c12: False
O=C(CSc1nnc(-c2ccc3nc(-c4ccc(Cl)cc4)[nH]c3c2)o1)Nc1ccc(Br)cc1: True
CN1CCN(c2ccc(Nc3nc(N4CCN(S(=O)(=O)c5ccc(Cl)cc5)CC4)c4sccc4n3)cc2)CC1: True

Q: Could you please tell me the result logged for `COc1ccc(-c2nc(-c3ccccc3)c(-c3ccccc3)n2-c2ccc(S(=O)(=O)Nc3ncccn3)cc2)cc1OC` in this assay?
A: False

Q: Request: `O=C(NO)c1ccc(CNC(=O)[C@H]2Cc3c([nH]c4ccccc34)[C@H](c3ccc(Cl)cc3)N2)cc1`
A: True

* * *

System: HCT-116 colon
MEASUREMENT DESCRIPTION: NCI-60 one-dose screen, 48 h (100 = growth as untreated, 0 = no growth, -100 = all killed)
SETUP CONDITIONS: 10 µM
Compounds without any hit were thinned out: in the full panel of roughly 83,000, 20% have a hit.
Some compounds, each annotated with its measured growth.
Numeric only. Scale: %

Sample answers from the record:
CC(=O)Nc1ccc(-n2cnc3cc(-c4ccc(O)cc4)ccc32)cc1F: 13.9
COc1ccc(CCN2C(=O)/C(=C/c3csc(C#N)n3)SC2=S)cc1: -63.2
COc1ccc(C(C)=C(c2ccc(OCCCN(C)C)cc2)c2ccc(OCCCN(C)C)cc2)cc1: -72.1

Q: Fill in the recorded growth for this compound, with HCT-116 colon as test system: `O=C(Nc1ccccc1)Nc1nc2ccccc2s1`
A: 85.9

Q: Please give the result for `O=C1NC(=NC23CC4CC(CC(C4)C2)C3)N/C1=C\c1ccc2ncccc2n1` too.
A: 17.9

Q: // next record `CN1CCN(c2ccc(C(=O)/C=C/c3cc(Br)ccc3F)cc2)CC1`
A: 1.2

Q: Follow-up item: `CC(=O)c1ccc(NC(=O)NCn2c(=O)[nH]c3ccccc3c2=O)cc1`
A: 110

Q: Let us now turn to O=C1CCC(N2Cc3c(C#CCCCNC(=O)c4ccc(NC(=O)[C@@H]5NC6(CCCCC6)[C@@]6(C(=O)Nc7cc(Cl)ccc76)[C@H]5c5cccc(Cl)c5F)cc4)cccc3C2=O)C(=O)N1 (some centres undefined)
A: 12.6

Q: Entry `O=C(NO)c1ccc(CNC(=O)[C@H]2Cc3c([nH]c4ccccc34)[C@H](c3ccccc3)N2)cc1` please
A: 10.1

* * *

Test system: IGROV1 ovarian
MEASUREMENT DESCRIPTION: NCI-60 one-dose screen, 48 h
SETUP CONDITIONS: 10 µM
Compounds without any hit were thinned out: in the full panel of roughly 83,000, 20% have a hit. The source made the active and inactive calls. Rule for the calls: active = growth percent below 10; inactive = the rest.
Result category, one only: active, inactive

CCCn1c(O)c(N=Nc2nc(-c3cc4ccccc4oc3=O)cs2)c2cc(Br)ccc21: inactive
O=c1c2ccccc2nc(COc2ccccc2)n1/N=C/c1ccc(N2CCCC2)cc1: inactive
C=C[C@H]1[C@H](O[C@@H]2OC(CO)[C@@H](O)[C@H](O)C2OC(=O)c2c(O)cc(O)cc2-c2cccc(O)c2)OC=C2C(=O)OCC[C@H]21 (stereo partly drawn): inactive
CC(=O)c1cc(C(=O)c2ccc3c(c2)NC(=O)CO3)n2ccc3ccccc3c12: inactive

Q: For `CC1=C2C(=C[C@@](C)(COCOCCCl)[C@@H]2O)C(=O)[C@](C)(O)C12CC2` , what call appears in the results of this test?
A: active

Q: Please answer likewise for O=C(c1ccc(O)cc1)C1[C@H](c2ccc(Br)cc2)[C@@H](c2ccccc2)NC12C(=O)Nc1ccc(Br)cc12 (stereo partly drawn)
A: active

Q: Now give it for `Cc1ccc(-c2cc(C(=O)N=Nc3c(O)[nH]c4ccccc34)c3ccccc3n2)cc1` too.
A: inactive

Q: Another compound: `COc1ccc(C=CC(=O)c2ccc(-n3c(C)nc4c(cnn4-c4ccccc4)c3=O)cc2)cc1`
A: inactive

* * *

System: SK-MEL-28 melanoma
MEASUREMENT DESCRIPTION: NCI-60 one-dose screen, 48 h
SETUP CONDITIONS: 10 µM
Method: Growth inhibition of the SK-MEL-28 human tumor cell line is measured as a screen for anti-cancer activity. Cells are grown in 96 well plates and exposed to the test compound for 48 hours. Compounds are tested at a single concentration, which is 10^-5 M for most compounds. The reported endpoint is percent growth (GI% or GIPRCNT), where numbers from 0 - 100% represent growth inhibition, and numbers from -100% - 0 represent cell death. For example, a value of 40 represents 60% growth inhibition. […]
Compounds without any hit were thinned out: in the full panel of roughly 83,000, 20% have a hit. The source made the active and inactive calls. The calls were made as follows: active = growth percent below 10; inactive = the rest.
Bench note: report the call from active, inactive

CC(=O)c1ccc(Nc2nc(SCCC(C)C)nc(-c3ccc(F)cc3)c2C#N)cc1: inactive
CC(=O)C1=C(C)NC(SCC(=O)Nc2ccc(S(=O)(=O)Nc3cc(C)on3)cc2)=NC1c1ccccc1 (configuration not stated): inactive
Cc1ccc2nc(COc3ccc(C(=O)NNC(=S)NC(=O)c4ccccc4)cc3)[nH]c2c1: inactive
Cc1cc(=O)oc2cc(OCCCCOc3ccc(/C=C/C(=O)Nc4cccc(Cl)c4)cc3)ccc12: inactive
Cc1ccc(F)cc1N/C=c1\s/c(=C(\C#N)C(=O)Nc2ccccc2)n(-c2ccccc2)c1=O: inactive
CN1CCN(c2ccc(C(=O)/C=C/c3cc(Br)ccc3F)cc2)CC1: inactive
Nc1n[nH]c2cccc(C#Cc3cccc(NC(=O)Nc4cc(C(F)(F)F)cc(C(F)(F)F)c4)c3)c12: active
CCOc1ccc(/C=N/NC(=O)Cn2nc(Cc3ccccc3)c3onc(C)c3c2=O)cc1: inactive

Q: Please state the recorded outcome for this compound: `Cc1noc2c(Cc3ccccc3)nn(CC(=O)N/N=C/c3ccc(F)cc3)c(=O)c12`
A: inactive

Q: For `O=C(Nc1cccc(C(F)(F)F)c1)c1cncc(C#Cc2cnc3cccnn23)c1` then?
A: inactive

Q: What would you report for `O=c1oc2ccc(-c3ccc(F)cc3F)cc2c(=O)n1-c1ccc(F)c(Cl)c1` ?
A: active

Q: Also `COc1ccc(-c2cc(C(=O)N=Nc3c(O)[nH]c4ccc(F)cc34)c3ccccc3n2)cc1` ?
A: inactive

* * *

Test system: UACC-62 melanoma
MEASUREMENT DESCRIPTION: NCI-60 one-dose screen, 48 h (100 = growth as untreated, 0 = no growth, -100 = all killed)
SETUP CONDITIONS: 10 µM
The panel holds about 83,000 compounds, 20% with a hit somewhere; the sample as a whole holds those more often.
Label y when growth is strictly below -50%; otherwise label n.

Answered examples (6):
COc1ccc(C(=O)/C=C/c2ccc(Cl)c(C(F)(F)F)c2)cc1S(N)(=O)=O: y
CN1CCN(c2ccc(Nc3nc(NCCCNC(=O)c4ccc(F)cc4)c4sccc4n3)cc2)CC1: n
CC1(C)CC[C@]2(C(=O)NCCCNCCCCNCCCN)CC[C@]3(C)C(=CC[C@@H]4[C@@]5(C)Cc6c([nH]c7ccccc67)C(C)(C)[C@@H]5CC[C@]43C)[C@H]2C1: n
O=C(NO)c1ccc(CNc2nc(-c3ccccc3)c3ccccc3n2)cc1: y
CC(=O)c1ccc(Nc2nc(SC(C)C)nc(-c3ccccc3)c2C#N)cc1: n
O=C1Nc2cc(Cl)ccc2/C1=C/c1ccc(OCc2ccc(Br)cc2F)cc1: y

Q: In plain terms, does `O=C(NCCCCCCCCCC[P+](c1ccccc1)(c1ccccc1)c1ccccc1)c1ccc(-n2nc(-c3ccccc3O)nc2-c2ccccc2O)cc1` come in under -50% for growth?
A: y

Q: Again, but for `O=C1Nc2cc(-c3ccc(NC(=O)c4cccs4)cc3)ccc2/C1=C/c1ccc[nH]1`
A: n

Q: Continue with `Cc1ccc(/C=C(\C#N)n2nnc3c(F)cccc32)cc1`
A: n

Q: Next compound: `Cc1ccc(-c2cc(-c3cc4ccccc4nc3Cl)[nH]c(=O)n2)cc1`
A: n

Q: Same for `O=c1c2ccccc2nc(COc2ccccc2)n1/N=C/c1ccc(N2CCCC2)cc1`
A: n
